# Tested on: TK-10
# test: NCI tumour cell line growth inhibition, 48 h
The source made the active and inactive calls. Rule as the data show it: active = GI50 up to about 1.1 µM and inactive = higher.

{"columns": ["molecule", "GI50"],
 "data": [
  ["O=C(Nc1nc(C23CC4CC(CC(C4)C2)C3)cs1)c1cc2ccccc2oc1=O", "> 100 µM (inactive)"],
  ["COc1ccc2c(c1)[n+]([O-])c(-c1c(Cl)cccc1Cl)c(N)[n+]2[O-]", "> 100 µM (inactive)"],
  ["COC1(OC)CC(CO)(CNc2cc(Cl)nc(N)n2)C1", "> 100 µM (inactive)"],
  ["CC1(O)CCC(C(C)(C)O)CC1 (stereo not drawn)", "> 100 µM (inactive)"],
  ["Cc1cn(CC2=NCC(O)CN2)c(=O)[nH]c1=O (stereo not drawn)", "> 100 µM (inactive)"],
  ["Nc1c2ccccc2nc2nccnc12", "> 100 µM (inactive)"],
  ["C[n+]1c2ccccc2c(NC(CCC(N)=O)C(=O)O)c2ccccc21 (stereo not drawn)", "> 100 µM (inactive)"],
  ["NC(CNc1ccc(O)cc1)C(=O)O (stereo not drawn)", "> 100 µM (inactive)"],
  ["c1ccc(CSc2nc3ccccc3nc2-c2cccs2)cc1", "> 100 µM (inactive)"],
  ["COC(=O)c1nc(N)nc(C(=O)OC)c1C(=O)c1ccccc1", "> 100 µM (inactive)"],
  ["CC1=C(c2ccccc2)NC(=S)C(C)C(c2ccccc2)=N1 (stereo not drawn)", "58.2 µM (inactive)"],
  ["CC1=C(C(=O)N(C(C)C)C(C)C)CC(C(=O)N(C(C)C)C(C)C)=C(C)N1", "> 100 µM (inactive)"],
  ["N#C/C(N)=C(\\C#N)NC(=O)C(=O)N/C(C#N)=C(\\N)C#N", "> 100 µM (inactive)"],
  ["Cc1nc(=O)n2c(C)n[nH]c2c1C(=O)O", "> 100 µM (inactive)"],
  ["NC(=O)N/N=C1/CCC(O)CC1CC(=O)O (stereo not drawn)", "> 100 µM (inactive)"],
  ["C[Si](C)(C)/C(Br)=C\\CCN1C(=O)CCC1O (stereo not drawn)", "> 100 µM (inactive)"],
  ["CCOC(=O)C1=CN(C(=O)c2ccccc2)CCC1Cc1ccccc1 (stereo not drawn)", "22.9 µM (inactive)"],
  ["CN(C)CC1CCCCCC(Br)C1=O (stereo not drawn)", "4.06 µM (inactive)"],
  ["COc1ccc(N2C(=O)[C@@H]3[C@@H]4CC(C)CC[C@@H]4c4c([nH]c5ccccc45)[C@@H]3C2=O)cc1 (stereo partly drawn)", "18.8 µM (inactive)"],
  ["OC(CCN1CCN(CCOC(c2ccccc2)c2ccccc2)CC1)c1ccccc1 (stereo not drawn)", "22.3 µM (inactive)"],
  ["CCOc1ccc(C(=O)/C=C2/Nc3ccccc3N/C2=C/C(=O)c2ccc(OCC)cc2)cc1", "> 100 µM (inactive)"],
  ["CC(=O)Oc1ccc(N2C(=O)C3c4[nH]c5ccccc5c4C4CCC(C(C)(C)C)CC4C3C2=O)cc1 (stereo not drawn)", "3.33 µM (inactive)"],
  ["O=c1/c(=C/c2ccccc2[N+](=O)[O-])sc2nc3ccccc3n12", "> 46.5 µM (inactive)"]
]}
